Test system: giant foxtail
Assay Details: Test B pre-/postemergence herbicide test
Assay type: in vivo, Setaria faberi
Condition Context: 500 g ai/ha; visual rating, 0 = no effect, 100 = complete control; preemergence
Assign Plant response rating, Foxtail, Giant to each entry below.
I only need the number, thanks.

Data request: Form entry - test system: giant foxtail; read-out: Plant response rating, Foxtail, Giant; compound: "CCn1nc(C(C)(C)C)cc1C(=O)Nc1cc(OC)ccc1F"
Data returned: 0

Data request: Form entry - test system: giant foxtail; read-out: Plant response rating, Foxtail, Giant; compound: "CCN(CC)C(=O)c1cc(NC(=O)c2cc(C(C)(C)C)nn2CC)c(F)cc1F"
Data returned: 30

Data request: Form entry - test system: giant foxtail; read-out: Plant response rating, Foxtail, Giant; compound: "CCn1nc(C(C)(C)C)cc1C(=O)Nc1cccc(C(=O)N2CCCC2)n1"
Data returned: 90

Data request: Form entry - test system: giant foxtail; read-out: Plant response rating, Foxtail, Giant; compound: "CCc1nn(C(C)(C)C)nc1C(=O)Nc1cc(C(=O)N(C)C)ccc1F"
Data returned: 100

Data request: Form entry - test system: giant foxtail; read-out: Plant response rating, Foxtail, Giant; compound: "CCn1nc(C2(C)CC2)cc1C(=O)Nc1cc(C(=O)N(C)C)ccc1F"
Data returned: 100

Data request: Form entry - test system: giant foxtail; read-out: Plant response rating, Foxtail, Giant; compound: "CCn1nc(C(C)(C)C)cc1C(=O)Nc1cc(C(=S)N(C)C)ccc1F"
Data returned: 100

Data request: Form entry - test system: giant foxtail; read-out: Plant response rating, Foxtail, Giant; compound: "CCNC(=O)c1cccc(NC(=O)c2sc(C(C)(C)C)nc2CC)n1"
Data returned: 90

Data request: Form entry - test system: giant foxtail; read-out: Plant response rating, Foxtail, Giant; compound: "CCn1nc(C(C)(C)C)c(F)c1C(=O)Nc1cccc(C(=O)N(C)C)n1"
Data returned: 90

Data request: Form entry - test system: giant foxtail; read-out: Plant response rating, Foxtail, Giant; compound: "CCc1nn(C2CCCC2)nc1C(=O)Nc1cccc(C(=O)N2CC=CC2)c1"
Data returned: 70
